system-tested: beta-catenin/TCF4 engagement (Homo sapiens, UniProt P35222)
Construct: expressed in transfected cells; host or cells: HEK293
Sequence (P35222 whole entry): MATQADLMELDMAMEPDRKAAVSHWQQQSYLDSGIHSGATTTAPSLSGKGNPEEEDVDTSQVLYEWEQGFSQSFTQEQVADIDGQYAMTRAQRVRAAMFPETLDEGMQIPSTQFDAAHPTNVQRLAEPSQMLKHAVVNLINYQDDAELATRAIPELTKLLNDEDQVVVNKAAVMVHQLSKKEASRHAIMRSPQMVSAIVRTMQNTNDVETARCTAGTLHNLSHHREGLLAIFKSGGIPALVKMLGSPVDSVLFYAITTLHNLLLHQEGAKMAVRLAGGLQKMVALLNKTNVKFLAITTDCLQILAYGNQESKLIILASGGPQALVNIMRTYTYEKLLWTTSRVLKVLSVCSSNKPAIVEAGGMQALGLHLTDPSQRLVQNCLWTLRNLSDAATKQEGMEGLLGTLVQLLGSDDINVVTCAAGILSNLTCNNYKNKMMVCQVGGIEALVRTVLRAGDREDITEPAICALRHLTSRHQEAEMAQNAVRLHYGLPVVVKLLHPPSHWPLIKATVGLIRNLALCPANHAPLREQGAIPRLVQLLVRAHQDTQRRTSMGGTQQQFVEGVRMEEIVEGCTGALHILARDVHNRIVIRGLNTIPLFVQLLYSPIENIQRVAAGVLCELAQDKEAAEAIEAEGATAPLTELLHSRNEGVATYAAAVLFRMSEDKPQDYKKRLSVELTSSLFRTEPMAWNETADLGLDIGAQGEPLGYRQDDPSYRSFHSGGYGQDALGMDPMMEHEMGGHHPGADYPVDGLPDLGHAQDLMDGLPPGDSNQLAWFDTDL
assay-method-text: Nano-BRET target engagement assay (B-cat-Halo & TCF4-Luc in HEK293 cells)
Type: cell-based
condition-context: read-out: NanoBRET Abs IC50
measure: IC50 (µM)
Answers are plain numbers, in µM.

Given the entry CC(=O)N1CCC[C@]12CC=CCCCC1(CCCC=CCCCOC(=O)N3CC[C@@](C(=O)N[C@@H](Cc4ccsc4)C(=O)N[C@@H](Cc4csc5ccccc45)C(=O)N[C@@H](CCC(N)=O)C(=O)N[C@@H](C)C(N)=O)(C3)NC(=O)[C@H](CC(N)=O)NC(=O)[C@H](Cc3ccccc3)NC(=O)[C@H](C)NC(=O)[C@H](C)NC(=O)[C@H](CC(=O)O)NC(=O)[C@H](CC(=O)O)NC1=O)NC(=O)[C@H](CC(C)(C)C)NC(=O)[C@H](CC(=O)O)NC2=O (some centres unmarked) , what IC50 was observed with beta-catenin/TCF4 engagement (Homo sapiens, UniProt P35222)?
7.5
